Each recorded value in this set is attributed to paper PMC5378956.

Assign inhibition at 10 min, 3 µM to each entry below.
# Measured target: CYP3A4 (Homo sapiens)
# Test description: CYP inhibition screening in microsomes
# Test parameters: pH 7.4, probe midazolam
Answers are plain numbers, in %.

// below: answered compounds
COc1ccc(N2CCN(C(c3ccc(N(C)C)cc3)c3nnnn3C(C)(C)C)CC2)cc1 (centres unmarked) [compound 31] = -0.9
Cc1cccc(NCc2ccc(O)c3ncccc23)c1C [compound 12] = -2.5
CCN(CC)c1ccc(CN2CCc3nc(C)[nH]c(=O)c3C2)c(OC)c1 [compound 64] = 0.6
Nc1ccc(N2CCOCC2)c2nonc12 [compound 11] = 3.6

Moving on to the next compound.
Using the record for Cn1c(=O)[nH]c(=O)c2c1nc(S)n2CC(O)COc1ccc(Cl)cc1 (centres unmarked) [compound 38] , state its measured inhibition at 10 min, 3 µM.
7.3

----------
# Measured target: CYP3A4 (Homo sapiens, UniProt P08684)
# Sequence (P08684 whole entry): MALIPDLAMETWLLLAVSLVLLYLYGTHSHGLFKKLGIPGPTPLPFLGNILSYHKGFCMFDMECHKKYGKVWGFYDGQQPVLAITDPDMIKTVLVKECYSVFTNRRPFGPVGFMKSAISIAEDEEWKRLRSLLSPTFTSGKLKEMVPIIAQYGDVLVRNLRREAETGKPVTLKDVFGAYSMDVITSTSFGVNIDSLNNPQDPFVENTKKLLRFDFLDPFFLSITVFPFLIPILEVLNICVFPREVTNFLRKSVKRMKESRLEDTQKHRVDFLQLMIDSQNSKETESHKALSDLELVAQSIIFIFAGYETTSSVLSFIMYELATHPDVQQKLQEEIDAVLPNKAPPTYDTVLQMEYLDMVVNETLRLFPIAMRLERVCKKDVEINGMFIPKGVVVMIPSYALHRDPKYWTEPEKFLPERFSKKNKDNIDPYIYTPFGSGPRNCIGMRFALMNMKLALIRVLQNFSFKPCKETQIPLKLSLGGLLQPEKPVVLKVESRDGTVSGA
# Test description: CYP inhibition screening in microsomes
# Test parameters: pH 7.4, probe midazolam
Assay metric: inhibition at 10 min, 10 µM (%)
One number for each entry, in %.

Worked set:
CCN(CC)c1ccc(CN2CCc3nc(C)[nH]c(=O)c3C2)c(OC)c1 = 10.1
COc1ccc(N2CCN(C(c3ccc(N(C)C)cc3)c3nnnn3C(C)(C)C)CC2)cc1 (centres unmarked) = 18.1
Nc1ccc(N2CCOCC2)c2nonc12 = 8
Cc1cccc(NCc2ccc(O)c3ncccc23)c1C = -2.5

Would you kindly look at the next entry?
Recall and state the measured inhibition at 10 min, 10 µM for Cn1c(=O)[nH]c(=O)c2c1nc(S)n2CC(O)COc1ccc(Cl)cc1 (centres unmarked) .
10.4

----------
# Test description: Single-dose pharmacokinetics, IV and oral
# Test parameters: male, CD-1, mouse, serum, po, 10 mg/kg
Assay metric: half-life (h)
One number for each entry, in h.

Please report the measured half-life for "Nc1ccc(N2CCOCC2)c2nonc12"
2.31

----------
# Test description: Caco-2 monolayer permeability screen
# Test parameters: human, Caco-2
Please go through the items and note down their Papp B→A at 2 h, 10 µM.
One number for each entry, in ×10⁻⁶ cm/s.

Hello, I would appreciate it if you could give Papp B→A at 2 h, 10 µM for each entry below.
1. Nc1ccc(N2CCOCC2)c2nonc12 [compound 11]
2. COc1ccc(N2CCN(C(c3ccc(N(C)C)cc3)c3nnnn3C(C)(C)C)CC2)cc1 (stereo not shown) [compound 31]
3. Cc1cccc(NCc2ccc(O)c3ncccc23)c1C [compound 12]
4. Cn1c(=O)[nH]c(=O)c2c1nc(S)n2CC(O)COc1ccc(Cl)cc1 (stereo not shown) [compound 38]

[7, 17.4, 3.7, 20.3]

----------
What inhibition at 10 min, 3 µM was measured for each of the following?
# Measured target: CYP2C19 (Homo sapiens)
# Sequence (P33261 whole entry): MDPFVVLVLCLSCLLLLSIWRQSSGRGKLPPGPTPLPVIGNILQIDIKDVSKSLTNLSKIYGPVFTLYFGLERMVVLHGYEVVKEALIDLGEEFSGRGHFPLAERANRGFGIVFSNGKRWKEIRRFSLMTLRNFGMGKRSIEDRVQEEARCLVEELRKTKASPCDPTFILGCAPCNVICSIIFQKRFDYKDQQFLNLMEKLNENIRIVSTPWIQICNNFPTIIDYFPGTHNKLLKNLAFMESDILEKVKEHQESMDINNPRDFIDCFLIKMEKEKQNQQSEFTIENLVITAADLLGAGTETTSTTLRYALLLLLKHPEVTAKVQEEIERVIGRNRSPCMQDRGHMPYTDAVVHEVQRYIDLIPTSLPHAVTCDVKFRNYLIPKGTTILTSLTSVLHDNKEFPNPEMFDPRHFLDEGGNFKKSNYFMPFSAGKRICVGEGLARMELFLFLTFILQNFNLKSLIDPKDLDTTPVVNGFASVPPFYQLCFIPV
# Test description: CYP inhibition screening in microsomes
# Test parameters: pH 7.4
Give bare numbers, in %.

Below, each entry is followed by its recorded inhibition at 10 min, 3 µM result.
Cc1cccc(NCc2ccc(O)c3ncccc23)c1C = 13.4
CCN(CC)c1ccc(CN2CCc3nc(C)[nH]c(=O)c3C2)c(OC)c1 = 31.6
Cn1c(=O)[nH]c(=O)c2c1nc(S)n2CC(O)COc1ccc(Cl)cc1 (centres unmarked) = -12
COc1ccc(N2CCN(C(c3ccc(N(C)C)cc3)c3nnnn3C(C)(C)C)CC2)cc1 (centres unmarked) = 37.7

Consider now this further compound.
Please indicate inhibition at 10 min, 3 µM recorded for "Nc1ccc(N2CCOCC2)c2nonc12"
4.4

----------
Would you kindly list Papp A→B at 2 h, 10 µM for each of these compounds?
# Test description: Caco-2 monolayer permeability screen
# Test parameters: human, Caco-2
Answers are plain numbers, in nm/s.

Below, each entry is followed by its recorded Papp A→B at 2 h, 10 µM result.
Cc1cccc(NCc2ccc(O)c3ncccc23)c1C = 14
CNC(=C[N+](=O)[O-])NCCSCc1ccc(CN(C)C)o1 [Ranitidine, reference compound] = 8
Cn1c(=O)[nH]c(=O)c2c1nc(S)n2CC(O)COc1ccc(Cl)cc1 (centres unmarked) = 11

Please look at the items below and tell me Papp A→B at 2 h, 10 µM for each one, in order.
1. COc1ccc(N2CCN(C(c3ccc(N(C)C)cc3)c3nnnn3C(C)(C)C)CC2)cc1 (centres unmarked)
2. Nc1ccc(N2CCOCC2)c2nonc12

193
350

----------
# Test description: Single-dose pharmacokinetics, IV and oral
# Test parameters: male, CD-1, mouse, serum, iv, 2 mg/kg
Assay metric: Vd
Please answer using a numeric value trailed by its unit.

State its Vd: Nc1ccc(N2CCOCC2)c2nonc12 [compound 11]
10.8 L/kg

----------
# Test description: Liver microsomal stability, mouse
# Test parameters: Mouse microsomes, 30 min, 37 °C
Assay metric: Mean Remaining Parent (NADPH-free) (%)
One number for each entry, in %.

Nc1ccc(N2CCOCC2)c2nonc12 = 103
Cn1c(=O)[nH]c(=O)c2c1nc(S)n2CC(O)COc1ccc(Cl)cc1 (stereo not shown) = 99
Cc1cccc(NCc2ccc(O)c3ncccc23)c1C = 0

// next entry
Tell me its Mean Remaining Parent (NADPH-free) given COc1ccc(N2CCN(C(c3ccc(N(C)C)cc3)c3nnnn3C(C)(C)C)CC2)cc1 (stereo not shown) as the entry.
86

----------
For each record, write down the corresponding IC50.
# Measured target: cathepsin-S (Homo sapiens, UniProt P25774)
# Sequence (P25774 115-331, species assumed): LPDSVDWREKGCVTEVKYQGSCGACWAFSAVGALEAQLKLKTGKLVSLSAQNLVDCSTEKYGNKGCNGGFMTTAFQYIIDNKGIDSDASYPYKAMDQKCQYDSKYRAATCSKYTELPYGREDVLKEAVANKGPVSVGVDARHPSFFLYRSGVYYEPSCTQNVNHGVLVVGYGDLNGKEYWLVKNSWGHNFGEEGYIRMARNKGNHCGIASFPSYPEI
# Test description: IC50 assay with recombinant cathepsin-S
# Test parameters: mean±s.d.

Record excerpt, results attached:
CN(C)c1ccc(N2C(=O)C=CC2=O)cc1 = > 100 µM
COc1ccc(N2CCN(C(c3ccc(N(C)C)cc3)c3nnnn3C(C)(C)C)CC2)cc1 (stereo not shown) = > 100 µM
Cc1cccc(NCc2ccc(O)c3ncccc23)c1C = > 200 µM

Please go through the list and note IC50 for each molecule.
1. N#CSc1cnc(N)s1
2. CCN(CC)c1ccc(CN2CCc3nc(C)[nH]c(=O)c3C2)c(OC)c1
3. Nc1ccc(N2CCOCC2)c2nonc12
4. Cn1c(=O)[nH]c(=O)c2c1nc(S)n2CC(O)COc1ccc(Cl)cc1 (stereo not shown)

1. > 200 µM
2. > 100 µM
3. > 200 µM
4. > 200 µM

----------
Exercise: for every item that follows, state its recorded inhibition at 10 min, 10 µM.
# Measured target: UniProt:P05177
# Sequence (P05177 whole entry): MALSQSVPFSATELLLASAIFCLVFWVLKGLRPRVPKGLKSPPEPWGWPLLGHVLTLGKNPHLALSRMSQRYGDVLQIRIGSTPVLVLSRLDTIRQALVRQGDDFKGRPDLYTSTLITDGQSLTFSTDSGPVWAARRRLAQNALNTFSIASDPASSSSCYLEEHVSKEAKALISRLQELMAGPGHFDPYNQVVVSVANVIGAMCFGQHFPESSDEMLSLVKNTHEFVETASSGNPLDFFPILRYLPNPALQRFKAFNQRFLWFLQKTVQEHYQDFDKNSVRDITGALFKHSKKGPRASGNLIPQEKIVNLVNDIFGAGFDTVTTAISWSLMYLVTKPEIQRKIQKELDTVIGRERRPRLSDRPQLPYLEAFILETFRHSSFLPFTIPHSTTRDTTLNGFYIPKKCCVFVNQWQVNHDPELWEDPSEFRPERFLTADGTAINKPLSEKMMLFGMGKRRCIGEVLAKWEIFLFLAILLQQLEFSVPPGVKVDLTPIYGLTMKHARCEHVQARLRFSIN
# Test description: CYP inhibition screening in microsomes
# Test parameters: pH 7.4

See these solved cases before continuing.
Nc1ccc(N2CCOCC2)c2nonc12 = 37%
Cn1c(=O)[nH]c(=O)c2c1nc(S)n2CC(O)COc1ccc(Cl)cc1 (centres unmarked) = 10.5%
CCN(CC)c1ccc(CN2CCc3nc(C)[nH]c(=O)c3C2)c(OC)c1 = 22.2%
COc1ccc(N2CCN(C(c3ccc(N(C)C)cc3)c3nnnn3C(C)(C)C)CC2)cc1 (centres unmarked) = 10.3%

# context switch: different molecule, same inhibition at 10 min, 10 µM
Look up and report inhibition at 10 min, 10 µM, with UniProt:P05177 as system, for "Cc1cccc(NCc2ccc(O)c3ncccc23)c1C"
44.5%

----------
# Measured target: cathepsin-L (Homo sapiens, UniProt P07711)
# Sequence (P07711 114-333, species assumed): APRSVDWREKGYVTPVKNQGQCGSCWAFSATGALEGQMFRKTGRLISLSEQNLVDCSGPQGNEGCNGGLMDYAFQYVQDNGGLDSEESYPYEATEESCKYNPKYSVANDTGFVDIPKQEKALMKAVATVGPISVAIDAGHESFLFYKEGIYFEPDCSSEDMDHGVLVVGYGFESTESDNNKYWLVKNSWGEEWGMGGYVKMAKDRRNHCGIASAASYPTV
pIC50: −log10 of the molar value.
Assay metric: pIC50

Cn1c(=O)[nH]c(=O)c2c1nc(S)n2CC(O)COc1ccc(Cl)cc1 (stereo not drawn) [compound 38] = < 3.70
Nc1ccc(N2CCOCC2)c2nonc12 [compound 11] = < 3.70
CCN(CC)c1ccc(CN2CCc3nc(C)[nH]c(=O)c3C2)c(OC)c1 [compound 64] = < 4.00
CN(C)c1ccc(N2C(=O)C=CC2=O)cc1 [compound 22] = < 4.00
N#CSc1cnc(N)s1 [compound 10] = 5.42

// next entry
Provide pIC50, recorded with cathepsin-L (Homo sapiens, UniProt P07711), of COc1ccc(N2CCN(C(c3ccc(N(C)C)cc3)c3nnnn3C(C)(C)C)CC2)cc1 (stereo not drawn) [compound 31]
5.89

----------
# Measured target: δ-secretase (Homo sapiens)
# Construct: tested with purified active δ-secretase, IC50 values for the top 8 candidates were calculated; purchased Sino Biological (Beijing, China)
# Sequence (Q99538 18-323 limits assumed): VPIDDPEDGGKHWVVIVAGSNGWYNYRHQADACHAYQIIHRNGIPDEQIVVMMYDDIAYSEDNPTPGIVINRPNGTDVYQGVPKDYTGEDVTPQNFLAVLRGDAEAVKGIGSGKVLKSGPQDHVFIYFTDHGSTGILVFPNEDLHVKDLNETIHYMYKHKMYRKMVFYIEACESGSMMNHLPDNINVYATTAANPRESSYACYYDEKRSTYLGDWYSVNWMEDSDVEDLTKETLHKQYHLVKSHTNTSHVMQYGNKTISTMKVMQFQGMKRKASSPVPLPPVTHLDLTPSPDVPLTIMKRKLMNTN
# Test description: IC50 assay with purified recombinant δ-secretase (AEP), substrate Cbz-Ala-Ala-Asn-AMC
# Type: biochemical
# Test parameters: purified recombinant enzyme; mean±s.d.; read-out: IC50 AEP (δ-secretase)
Assign pIC50 to each entry below.
One number for each entry, as −log10 of the molar value.

Illustrative cases are given below, each with its answer.
CCN(CC)c1ccc(CN2CCc3nc(C)[nH]c(=O)c3C2)c(OC)c1 = 5.63
COc1ccc(N2CCN(C(c3ccc(N(C)C)cc3)c3nnnn3C(C)(C)C)CC2)cc1 (stereo not drawn) = 6.59
N#CSc1cnc(N)s1 = 6.15
Cc1cccc(NCc2ccc(O)c3ncccc23)c1C = 6.55

Provide the reported pIC50 of each entry below, same order.
1. CN(C)c1ccc(N2C(=O)C=CC2=O)cc1
2. Cn1c(=O)[nH]c(=O)c2c1nc(S)n2CC(O)COc1ccc(Cl)cc1 (stereo not drawn)

1. 6.68
2. 6.43
